# credit: patent US5493027A

- Protocol Text: Rotorod test for neurological deficit (TOX) in mice
- Format: in vivo, male Carworth Farms number-1 mice
- Measurement Conditions: mouse, in vivo, ip; Table 7, value in parentheses = maximum ineffective dose; read-out: (Maximum Ineffective) Intraperitoneal Dose, Rotorod
Endpoint Name: NOAEL
Reply with the number and its unit after it.

// query Sample O=C(O)c1cc2cc(F)ccc2[nH]1 [5-F-indole-2-COOH, 5-fluoro-indole-2-carboxylic acid] — what was its NOAEL?
// result 300 mg/kg

---

- Protocol Text: Rotorod test for neurological deficit (TOX) in mice
- Format: in vivo, male Carworth Farms number-1 mice
- Measurement Conditions: mouse, in vivo, ip
Endpoint Name: NOAEL (mg/kg)
Respond numerically; units are mg/kg and should not be typed.

1) CCOC(=O)c1cc(O)c2ccc(Cl)cc2n1 [7-Cl-kyn-2-ethyl ester] : 300
2) O=C(O)c1cc(O)c2c(Cl)cc(Cl)cc2n1 [5,7-di-Cl-kyn-2-COOH] : 300
3) CCCCOC(=O)c1cc2cc(F)ccc2[nH]1 [5-F-indole-2-butyl ester] : 300

// query Sample Cc1c(Cl)ccc2c(O)cc(C(=O)O)nc12 [7-Cl-8-methyl-kyn-2-COOH] — what was its NOAEL?
// result 300

// query Sample CCOC(=O)c1cc(O)c2c(F)cc(F)cc2n1 [5,7-di-F-kyn-2-ethyl ester] — what was its NOAEL?
// result 300

// query Sample "CCOC(=O)c1cc(NC)c2c(Cl)cc(Cl)cc2n1" — what was its NOAEL?
// result 300

---

- Tested on: neurological deficit (rotorod)
- Protocol Text: Rotorod test for neurological deficit (TOX) in mice
- Assay type: in vivo, male Carworth Farms number-1 mice
- Measurement Conditions: mouse, in vivo, ip
Endpoint Name: Effective Intraperitoneal Dose, Rotorod (mg/kg)
Respond numerically; units are mg/kg and should not be typed.

1) CCOC(=O)c1cccc(C(=O)OCC)n1 [2,6-pyridine-di-(ethyl carboxylate), 2,6-pyridine-di(ethyl carboxylate)] : 300
2) COc1ccc2[nH]c(C(=O)O)cc2c1 [5-methoxy-indole-2-COOH] : 300
3) O=C(O)c1cc2cc(Cl)ccc2[nH]1 [5-Cl-indole-2-COOH, 5-chloro-indole-2-carboxylic acid] : 300

With those in mind, consider the next molecule.
// query Sample CNc1cc(C(=O)O)nc2cc(Cl)cc(Cl)c12 [5,7-di-Cl-4-methylamino-kyn-2-COOH] — what was its Effective Intraperitoneal Dose, Rotorod?
// result 100

---

- System: maximal electroshock seizures (MES)
- Protocol Text: animal or person
- Format: in vivo, male Carworth Farms number-1 mice
- Measurement Conditions: 4 hours, 30 mg/kg, mice i.p.
Endpoint Name: MES

Solved entries (count: 5):
1) COC(=O)c1cc(N)c2c(Cl)cc(Cl)cc2n1 : 0/1
2) CNc1cc(C(=O)O)nc2cc(Cl)cc(Cl)c12 : 0/1
3) CNc1cc(C(=O)OC)nc2cc(Cl)cc(Cl)c12 : 0/1
4) CCCCOC(=O)c1cc(NC)c2c(Cl)cc(Cl)cc2n1 : 0/1
5) Nc1cc(C(=O)O)nc2cc(Cl)cc(Cl)c12 : 0/1

// query Sample "CCOC(=O)c1cc(NC)c2c(Cl)cc(Cl)cc2n1" — what was its MES?
// result 0/1

---

- Tested on: pentylenetetrazole (Metrazol) induced seizures
- Protocol Text: Subcutaneous pentylenetetrazole (Metrazol) seizure threshold test (Met) in mice
- Assay type: in vivo, male Carworth Farms number-1 mice
- Measurement Conditions: 30 minutes, 100 mg/kg, mice i.p.
Endpoint Name: Sc MET

1) CNc1cc(C(=O)OC)nc2cc(Cl)cc(Cl)c12 : 0/1
2) CNc1cc(C(=O)O)nc2cc(Cl)cc(Cl)c12 : 0/1
3) CCCCOC(=O)c1cc(NC)c2c(Cl)cc(Cl)cc2n1 : 0/1
4) COC(=O)c1cc(N)c2c(Cl)cc(Cl)cc2n1 : 1/1
5) Nc1cc(C(=O)O)nc2cc(Cl)cc(Cl)c12 : 0/1

With those in mind, consider the next compound.
// query Sample "CCOC(=O)c1cc(NC)c2c(Cl)cc(Cl)cc2n1" — what was its Sc MET?
// result 1/1
